- targetOfAssay: site IQ of complex I (Rattus norvegicus, UniProt A6K8N6+P03889+Q641Y2)
- Sequence (A6K8N6 entry or part of it): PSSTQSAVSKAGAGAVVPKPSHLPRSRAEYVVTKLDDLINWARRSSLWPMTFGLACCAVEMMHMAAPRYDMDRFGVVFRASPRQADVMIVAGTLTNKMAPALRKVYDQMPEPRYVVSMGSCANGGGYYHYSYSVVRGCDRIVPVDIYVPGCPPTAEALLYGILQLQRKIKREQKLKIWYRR
- Sequence (P03889 whole entry): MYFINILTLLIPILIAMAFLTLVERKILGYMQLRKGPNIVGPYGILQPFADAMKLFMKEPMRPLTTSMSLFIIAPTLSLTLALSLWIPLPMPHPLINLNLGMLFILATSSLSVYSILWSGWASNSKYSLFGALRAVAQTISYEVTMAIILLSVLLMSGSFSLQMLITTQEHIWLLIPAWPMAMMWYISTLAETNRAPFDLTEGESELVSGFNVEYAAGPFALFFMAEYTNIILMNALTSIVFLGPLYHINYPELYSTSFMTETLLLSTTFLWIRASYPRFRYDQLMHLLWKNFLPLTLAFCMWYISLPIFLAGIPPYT
- Sequence (Q641Y2 34-463): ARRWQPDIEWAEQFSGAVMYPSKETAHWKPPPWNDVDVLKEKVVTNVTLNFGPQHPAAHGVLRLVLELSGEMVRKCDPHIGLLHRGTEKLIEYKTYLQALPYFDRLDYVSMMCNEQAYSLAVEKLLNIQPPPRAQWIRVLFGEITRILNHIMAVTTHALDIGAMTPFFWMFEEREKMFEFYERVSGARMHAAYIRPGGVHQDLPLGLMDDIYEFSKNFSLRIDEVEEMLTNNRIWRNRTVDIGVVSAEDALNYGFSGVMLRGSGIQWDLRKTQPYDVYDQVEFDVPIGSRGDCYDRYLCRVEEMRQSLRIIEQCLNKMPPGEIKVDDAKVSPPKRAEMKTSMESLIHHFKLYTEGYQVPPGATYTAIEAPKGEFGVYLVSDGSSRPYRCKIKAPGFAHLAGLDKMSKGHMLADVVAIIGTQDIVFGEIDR
- assayDetails: Mitochondrial ROS/H2O2 production (Amplex Red/HRP), glutamate+malate+succinate with ATR, no inhibitor
- Format: biochemical
- assaySetup: AOX 2.5 to 20 μM; glutamate, malate, succinate, ATR; read-out: estimated IC50 on ROS production by site IQ
pIC50: −log10 of the molar value.
measurementType: pIC50

q: Consider the compound Oc1ccc(-c2cc(=S)ss2)cc1 [AOX] . State its measured pIC50.
a: ~5.02

###

- targetOfAssay: site IQ of complex I (Rattus norvegicus, UniProt A6K8N6+P03889+Q641Y2)
- assayDetails: Mitochondrial ROS/H2O2 production (Amplex Red/HRP), glutamate+malate+succinate with ATR, no inhibitor
- Format: biochemical
- assaySetup: fit of FIG. 21; read-out: IC50 (fit parameter)
measurementType: IC50 (µM)
Your answer is read as µM, so omit the unit and give the number.

q: Give IC50; test system site IQ of complex I (Rattus norvegicus, UniProt A6K8N6+P03889+Q641Y2); molecule "Oc1ccc(-c2cc(=S)ss2)cc1"
a: 9.47
